Experiment: yeast display, Sf9 membrane polyspecificity reagent, FACS + sequencing; frameworks hold sequencing errors
OBSERVED PROPERTY: polyreactivity (PSR sort gate)

BIOPOLYMER SEQUENCE	polyreactivity (PSR sort gate)
QVQLVESGGGLVQAGGSLRLSCAASGFTLEYNAMGWYRQAPGKERELVAAIDGDGTTYYADSVKGRFTISRDNAKNTVYLQMNSLKPEDTAVYYCNTRTTPYYAQGITRIEYDYWGQGTQVTVSS	low polyreactivity
QVQLVESGGGLVQAGGSLRLSCAASGRIFWGSAMGWFRQAPGKERELVAAITRSGGRTYYADSVKGRFTISRDNAKNTVYLQRNSLKPDDTPVYYCAAYYWYKWGYKYGYWGQGTQVTVST	high polyreactivity
QVQLVESGGVLFQAGGSLSLSCAASGLTFPRYAMGWYRQAPGKESELDAAISYRGSRTYYADSVKGRFTISRDNAKNTVYLQMNSLKPEDTAVYYCNKVRPGYGVTYLVGYWGQGTQVTVSS	high polyreactivity
QVQLVESGGGLVQAGGSLRLSCAASGSIFILYAMGWYRQAPGKERELVAAISSTGTTYYADSVKGRFTISRDNAKNTVYLQMNSLKPEDSAVYYCAADIYPDWIYLLYGYWGQGTQVTVSS	low polyreactivity
QVQHVETGGGLVQAGGSHRLSCAASGLIFDYNAMGWYTQAPRKERELDADISSGGSTYYADSVKGRFTISSDNGKNSVYLQMNSLKTEDTAVYYCATRRQAQYTRYYGSRQFYYWGQGTQVTVSS	high polyreactivity
QVQLVESGGGLVQAGGSLRLSCAASGRIFRGNTMGWYRQAPGKERELVAAITRGGSTSYADSVKGRFTISRDNAKNTVNLQMNSLKPEDTAVYYCATRTHGEGTRRDSWGQGTQVTVSS	low polyreactivity

Notebook: QVQLVESGGGLVQEGGILPLSCAASGFIFGDYVMGWYRQAPGKERELVAAINRNGGRTYYADSVKGRFTISRDYAKNTVYLQMNSLKPEDTAVFYCAAVFRSDRYHWYYYWGQGTQVTVSS , polyreactivity (PSR sort gate) read as high polyreactivity

Notebook: QVQHVESGGGLVQAGGSLRLSCAASGSTIYWYAMGWYRQAPGKERELVAAISLSGGSTYYADSVKGRFTISRDNAKNTVYLQMNSLKPEDTAVYYCAARTSYYVYRHPSGRYDYWGQGTQVSVSS , polyreactivity (PSR sort gate) read as low polyreactivity

Notebook: QVQLVESGGGLVQAGGSLRLSCAASGSTFRINAMGWYRQAPGKERELVADINSGGNTTYADSVKGRFTISRDNAKNTVYLQMNSLKPEDTAVYYCNAPYSFFWQQMNYWGQGTQVTVSS , polyreactivity (PSR sort gate) read as low polyreactivity

Notebook: QVQLVESGGGLVQAGGSLRLSCAASGSIFIIYAMGRYRQAPGKERELVAAIRGRGGSTYYADSVKGRFTISRDKAKNTVYLEMNSLNPEDSAVYYCAASVDRGYNYWGEGTQVTVSS , polyreactivity (PSR sort gate) read as high polyreactivity

Notebook: QVQLVESGGGLVQAGGSLRLSCAASGFIITSYAMGWYRQAPGKERELVAAINGGGSTYYADSVKGRFTISRDNAKNTVYLQMNSLKPEDTAVYYCAAKFRAGRSSYYWGQGTQVTVSS , polyreactivity (PSR sort gate) read as high polyreactivity
